// data source = PubChem BioAssay

TARGET OF ASSAY: Muscarinic acetylcholine receptor M4 (Homo sapiens)
PROTOCOL TEXT: M4-linked GIRK flux change, two-sided – cell-based, HEK293 M4/GIRK, thallium flux, BTC-AM, M4 allosteric agonist project, primary screen (AID 625);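 also: thallium influx through GIRK channels coupled to M4 in HEK293 cells with BTC-AM dye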
CONDITION INFO: at 10 µM, actives lie on both sides
Label rule, in plain words: fluorescence slope of 0.005 and up is 1.0, under 0.005 is 0.0.

{"columns": ["COMPOUND", "ASSIGNED CLASS"],
 "data": [
  ["CC1(C)CC(=O)c2cnc(NC(=O)CSc3nc4ccccc4o3)nc2C1", 1.0],
  ["C=CCN1C(=O)/C(=C2\\SC(N3CCOCC3)=NC2=O)c2cc(Br)ccc21", 0.0],
  ["COc1ccc(CC(NC(C)=O)C(=O)NC2CCN(C(=O)Nc3ccc(C#N)cc3)CC2)cc1OC (stereo not given)", 1.0],
  ["Cn1c(=O)[nH]c(=O)c2[nH]c(CN3CCN(C(=O)c4ccco4)CC3)nc21", 0.0],
  ["COC(=O)c1sccc1NC(=O)c1ccncc1", 1.0]
]}
